B1: RSPH3 (parent)
chain: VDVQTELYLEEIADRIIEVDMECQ

# Variants of: B1
# ASSAY_INFO: protein stability index of a GFP-peptide fusion (GPS, HEK-293T) (PSI 1-6); higher = more stable;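 note: lentivirally expressed fusions sorted by FACS into six bins by GFP to DsRed ratio, PSI derived from sequencing read proportions per bin multiplied by bin number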
# ASSAY_CONTEXT: c terminus: a fixed tail appended
MEASURED_PROPERTY: protein stability index

Item "E11Q" has what recorded protein stability index?
2.73

Item "V1E" has what recorded protein stability index?
3.11

From here, focus on the item given below.
Item "R15F" has what recorded protein stability index?
2.31
